- Test system: U2OS
- assay_text: Multiplex assay against U2OS
- Assay type: toxicity, cell-based
- run_parameters: human, 12 h, 1 µM, compound concentration 1 uM, replicate 1

| compound | assay_system | Total Cell Count |
| --- | --- | --- |
| CN1CCN(c2cc(-c3ccccc3)nc(N)n2)CC1 | U2OS | 235 |
| CC(C)(C)c1cc(NC(=O)Nc2ccc(-c3cn4c(n3)sc3cc(OCCN5CCOCC5)ccc34)cc2)no1 | U2OS | 213 |
| COc1ccccc1N1CCN(C[C@@H](C(=O)NC(C)(C)C)c2ccccc2)CC1.Cl.Cl | U2OS | 281 |
| Cc1cccc(NC(=O)CN2CCC(c3ccccn3)CC2)c1.Cl.Cl | U2OS | 208 |
| Cc1noc(-c2ccc(-c3ccc(CC(=O)O)cc3)cc2)c1NC(=O)O[C@H](C)c1ccccc1Cl | U2OS | 231 |
| CCCOc1ccc2[nH]cc(C3=CCNCC3)c2n1.Cl | U2OS | 218 |
| Br.CS(=O)(=O)Nc1c(O)ccc2c1CCCC2C1=NCCN1 (stereo unspecified) | U2OS | 288 |
| CN[C@@H](C)C(=O)N[C@H](C(=O)N1CCC[C@H]1C(=O)Nc1snnc1-c1ccccc1)C1CCCCC1 | U2OS | 176 |
| Cc1sc2c(c1C)C(c1ccc(Cl)cc1)=N[C@@H](CC(=O)NCCCCCCCCNC(=O)COc1cccc3c1C(=O)N(C1CCC(=O)NC1=O)C3=O)c1nnc(C)n1-2 (stereo partly specified) | U2OS | 269 |
| CCc1cc2cc(NS(=O)(=O)c3ccc(C#N)cc3)ccc2n(CC)c1=O | U2OS | 286 |
| CC(=O)Nc1cccc2c1c(Sc1ccc(Cl)cc1)c(C)n2CC(=O)O | U2OS | 253 |
